measuredTarget: human recombinant IL-21 (expressed in E. coli as the mature peptide); residues 30-162 of SEQ ID NO: 1 with an … (human, UniProt Q9HBE4 30-162)
Sequence (Q9HBE4 other isoform, or with tags, fused parts or gaps): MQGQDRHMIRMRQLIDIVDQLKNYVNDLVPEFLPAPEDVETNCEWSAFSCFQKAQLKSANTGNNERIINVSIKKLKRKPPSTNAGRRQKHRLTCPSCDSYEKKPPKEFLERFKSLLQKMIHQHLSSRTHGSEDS
protocolNotes: cell-based or functional assay
// reported Bioactivity as % of RM (mAb37), NK-92 assay (alamarBlue) per item

Solved cases below.
{"binder": "mAb62 (mAb37 variant, heavy chain K65R) (antibody, human IgG4 S228P, kappa, V domains shown, Human IgG4(S241P), kappa) VH: EVQLVESGGGLVKPGGSLRLSCAASGFIFSSYSMNWVRQAPGKGLEWVSSITSGSYYIHYADSVRGRFTISRDNAKNSLYLQMNSLRAEDTAVYYCVRERGWGYYGMDVWGQGTTVTVSS VL: AIQLTQSPSSLSASVGDRVTITCRASQDIDSALAWYQQKPGKAPKILIHDASSLESGVPSRFSGSGSGTDFTLTISSLQPEDFATYYCQQFNSYPYTFGQGTKLEIKR", "result": "73.2 % of RM (mAb37)"}
{"binder": "mAb63 (mAb37 variant, light chain R24K) (antibody, human IgG4 S228P, kappa, V domains shown) VH: EVQLVESGGGLVKPGGSLRLSCAASGFIFSSYSMNWVRQAPGKGLEWVSSITSGSYYIHYADSVKGRFTISRDNAKNSLYLQMNSLRAEDTAVYYCVRERGWGYYGMDVWGQGTTVTVSS VL: AIQLTQSPSSLSASVGDRVTITCKASQDIDSALAWYQQKPGKAPKILIHDASSLESGVPSRFSGSGSGTDFTLTISSLQPEDFATYYCQQFNSYPYTFGQGTKLEIKR", "result": "92.1 % of RM (mAb37)"}
{"binder": "mAb61 (mAb37 variant, heavy chain D62E) (antibody, human IgG4 S228P, kappa, V domains shown, Human IgG4(S241P), kappa) VH: EVQLVESGGGLVKPGGSLRLSCAASGFIFSSYSMNWVRQAPGKGLEWVSSITSGSYYIHYAESVKGRFTISRDNAKNSLYLQMNSLRAEDTAVYYCVRERGWGYYGMDVWGQGTTVTVSS VL: AIQLTQSPSSLSASVGDRVTITCRASQDIDSALAWYQQKPGKAPKILIHDASSLESGVPSRFSGSGSGTDFTLTISSLQPEDFATYYCQQFNSYPYTFGQGTKLEIKR", "result": "86.2 % of RM (mAb37)"}

Challenge: Item mAb64 (mAb37 variant, light chain Q27N) (antibody, human IgG4 S228P, kappa, V domains shown) VH: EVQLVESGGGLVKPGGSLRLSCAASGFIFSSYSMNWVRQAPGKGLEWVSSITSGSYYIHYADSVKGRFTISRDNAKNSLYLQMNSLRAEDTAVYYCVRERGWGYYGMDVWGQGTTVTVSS VL: AIQLTQSPSSLSASVGDRVTITCRASNDIDSALAWYQQKPGKAPKILIHDASSLESGVPSRFSGSGSGTDFTLTISSLQPEDFATYYCQQFNSYPYTFGQGTKLEIKR : provide Bioactivity as % of RM (mAb37), NK-92 assay (alamarBlue)
Response given: 116 % of RM (mAb37)
